Value source: ChEMBL document CHEMBL4411326

Test Method Notes: Displacement of [3H]-cytisine from alpha4beta2* nAChR in Wistar rat cerebral cortex membranes after 75 mins
Type: cell membranes
pKi: −log10 of the molar value.
Tag: Condition met if measured pKi is not below 7, Condition not met if it is.

// known answers, use as guide
>>> print(df.to_string())
                            compound_smiles     assigned_class
0  CN(C)[C@@H]1[C@@H]2CC[C@@H](C2)[C@H]1c1cccnc1      Condition met
1  CN(C)[C@@H]1[C@@H]2CC[C@@H](C2)[C@H]1c1ccc(Cl)nc1      Condition met
2                      CN1CCC[C@H]1c1cccnc1      Condition met
3   N[C@@H]1[C@H]2CC[C@H](C2)[C@H]1c1cccnc1  Condition not met
4  CN(C)[C@@H]1[C@H]2CC[C@H](C2)[C@H]1c1ccc(Cl)nc1  Condition not met

Pending compound:
Query: Given CN(C)[C@@H]1[C@H]2CC[C@H](C2)[C@H]1c1cccnc1 , state whether its pKi is at least 7.
Response: Condition not met
